Molecular target: TYK2 (JH2domain-pseudokinase) (Homo sapiens, UniProt P29597)
Construct: TYK2 (JH2domain-pseudokinase)-tagged T7 phage strains were prepared in an E. coli host derived from the BL21 strain
Sequence (P29597 589-875 limits assumed): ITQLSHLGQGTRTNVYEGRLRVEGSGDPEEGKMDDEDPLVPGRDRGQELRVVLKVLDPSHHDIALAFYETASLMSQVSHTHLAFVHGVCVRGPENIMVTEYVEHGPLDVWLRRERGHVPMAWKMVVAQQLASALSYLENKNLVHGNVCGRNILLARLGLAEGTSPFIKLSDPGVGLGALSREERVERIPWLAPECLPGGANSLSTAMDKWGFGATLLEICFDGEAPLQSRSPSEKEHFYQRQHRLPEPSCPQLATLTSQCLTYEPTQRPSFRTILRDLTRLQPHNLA
Experiment: TYK2 JH2 domain binding assay (KINOMEscan)
pKd: −log10 of the molar value.
Known pKd of a selection of compounds

Completed entries (count: 5):
>>> measured_result("Cc1c(-c2cnc(Nc3cc(Nc4ccc(F)cn4)ncn3)c(S(C)(=O)=O)c2)cnn1C")
"> 9.70"
>>> measured_result("COc1c(Nc2cc(Nc3cc(C)nc(C)n3)ncn2)ccc(-c2cnn(C)c2C)c1C")
"> 9.70"
>>> measured_result("COc1c(Nc2cc(Nc3cc(C)nc(C)n3)ncn2)ccc(F)c1-c1ncn(C)n1")
"9.00 to 9.70"
>>> measured_result("CCn1cnc(-c2cccc(Nc3cc(Nc4cc(C)nc(C)n4)ncn3)c2OC)n1")
"> 9.70"
>>> measured_result("CN=S(C)(=O)c1ccccc1Nc1cc(Nc2cc(C)nc(C)n2)ncn1 (centres unmarked)")
"> 9.70"

// query Reported pKd, compound COc1c(Nc2cc(Nc3cc(C)nc(C)n3)ncn2)cccc1-c1nc(C)n(C)n1 : ____
// result 9.00 to 9.70

// query Try COc1c(Nc2cc(NC(=O)C3CC3)ncn2)cccc1-c1ncn(C)n1 next.
// result 8.00 to 9.00

// query Try Cc1cc(Nc2cc(Nc3ncc(-c4cn(C)cn4)cc3N(C)S(C)(=O)=O)ncn2)nc(C)n1 next.
// result > 9.70

// query Try Cc1cc(Nc2cc(Nc3nccc(C)c3N(C)S(C)(=O)=O)ncn2)nc(C)n1 next.
// result 8.00 to 9.00
